ASSAY_SUMMARY: activity coefficient (dimensionless); of the first substance listed, at infinite dilution; xn = mol fraction of the nth substance listed
COND: 333.2 K; 101 kPa; Liquid; Chromatography; x1 = 0
MEASUREMENT_LABEL: activity coefficient

{"columns": ["MOLECULE", "activity coefficient"],
 "data": [
  ["C=CCCCC [hex-1-ene] + CN1CCCC1=O", 5.51],
  ["CCCCCCC [heptane] + CN1CCCC1=O", 11.4],
  ["C=CCCCC [hex-1-ene] + O=CN1CCOCC1", 13.5]
]}

a. C=CCCCCC [1-heptene] + CN1CCCC1=O
b. C1CCCCCC1 [cycloheptane] + O=CN1CCOCC1
c. CO [methanol] + CN1CCCC1=O
d. CCCCCCCC [octane] + O=CN1CCOCC1
e. c1ccccc1 [benzene] + CN1CCCC1=O
q: Could you please order the items by activity coefficient, going from the lowest number to the highest? Answer by listing the labels in the order asked for.
a: c, e, a, b, d
(c: 0.482, e: 1.1, a: 6.37, b: 15.4, d: 39.5)
